Taken from ChEMBL document CHEMBL4513216.

- Tested on: Plasmodium berghei
- test-details: Screen against P. berghei liver stage (PbLuc), transformed with Luciferase, at 10uM
- Type: functional, HepG2
- protocol-conditions: tested at 10 uM
The whole screen tested about 69,000 compounds, of which about 8,600 (12%) showed an effect of 50% or more. The sample as a whole holds a higher share of strong results than the screen did.
INHIBITION values for the molecules below.
# output: bare number, implied unit %

INSERT INTO measurements (molecule, target, recorded_number) VALUES
  ('COc1cc(CNC(=O)Nc2nnc(C(C)C)s2)ccn1', 'Plasmodium berghei', -69.3),
  ('CCOC(=O)CC1CCCCN1C(=O)c1cccc2ccnn12 (stereo unspecified)', 'Plasmodium berghei', -22.1),
  ('CN1C(=O)CCCC12CCCN(C(=O)c1cccc(C(F)(F)F)c1)C2 (stereo unspecified)', 'Plasmodium berghei', 40.8),
  ('CS(=O)(=O)CCCNC(=O)C1(c2cccc(Cl)c2)CC1', 'Plasmodium berghei', 28.3),
  ('Cc1cccc(C2(CNC(C)c3nnc(C)o3)CCCC2)c1 (stereo unspecified)', 'Plasmodium berghei', -10.2),
  ('COCCn1cc2c(n1)C(CNC(=O)c1cc(C)[nH]c1C)OCC2 (stereo unspecified)', 'Plasmodium berghei', 23.6),
  ('c1ncn(CC2CN(CCCOc3ccc4c(c3)OCO4)CCO2)n1 (stereo unspecified)', 'Plasmodium berghei', 36.1),
  ('COCCn1cc(CCC(=O)Nc2c(C)nn(C)c2C)c2ccccc21', 'Plasmodium berghei', 39.4);

Form field: reported INHIBITION of O=C(C[C@@H]1COC[C@H]2CN(C(=O)c3ccccn3)C[C@@H]12)N1CCCC1
6.72

Now try CCN(C(=O)C1Cc2cc(Cl)ccc2O1)C1CC1 (stereo unspecified) .
38.3

Now try N#CC1(C(=O)N2C[C@H](Nc3ccnc(N)n3)[C@@H](C3CC3)C2)CCOCC1 .
26.9
